- ASSAY METHOD TEXT: soluble fraction after stress (log2 fold change); higher = more stays soluble; pooled small domains, quantitative proteomics
- CONDITION DETAILS: stress: 50 degC
just bin them by soluble fraction (log2): low = under -0.1, medium = from -0.1 up to 0.09, high = 0.09 and over

SEQUENCE CONTENT	CLASS LABEL
HMVYLPSSIKNIPTKYGEMMVANFKMDELQANSKNGWVSMVISERREPSEKGATHYAYVNTY	high
HMINYSQKQLIAIQDELSKRFQALENESTKNNVTGFGVGLHYIDIDLIVNTPEKQKEFREKIMDSPAFRFN	low
HMSKQDRRIRRTRRLLKESLIQLMQEKEFMNISVREVTERADLNRGTFYLHYQDTRHLLQDIENETL	low
HMYIEKTAYINDTAVNVRKSATTDSDVIKVLALNTEITIIGEENDWYKVKSGNDIGYIAKRLVSDQKKE	medium
HMNSEEINDVRKAVDELPTHLREILLLNYFQQMSYVQISDSLEIPLGTVKSRLHAAVAAFRNAWQSSQEE	low
HMVVKSPLEMAFDKFREMRKKIRKPMTERAEELIWKELSKLAGEDSDLKIEILEQSIRNGWQDVYAVK	low
HMPPLVLRGVVMGADGARLAILAQGEAGAALGIGETWKEYTLRSVTDQSATLEHRSGTITLTR	low
HMSDKNVYGKYKNVFLSDEEFSELKQFYPNDWSDRIETLSEGIELKGYKYKNYLLAIKKWAEYEGQKAD	medium
HMKNLTEVEYSEFLESIAQDRVSKVQVDGLIIRGEMNDGQRFETVQPQVTDKALIDDMVNHRVDFSGARP	high
HMKLQIQNIEIDKKISELAEGVSAEKLPFLAKLIDRSKLLNDKGEINEDSVKAAIEEVVKAFPDFK	medium
HMHYALTVDFPAALEARIDPAHRAALRGVLAHDPRPSYQSDPERLYGVAFAGKNVKFTVEDGVLTVRKIEE	medium
HMELPMGTQLPPERELAQQMQVSRAVVNGGLAELAQQGFLEVRPRQGTFVADYRRKGNLSTLIAIMEY	medium
HMANLDSLIKKVGQYAKDKQSISVDGIKKDLSIDKDMVKEALAELLKIGVVDKPDEAGQYKVIM	high
HMGQKASEVEKIFVELQQQIIRGDLPPGYRLVESQIAAQFGVSRTPARLAIERLATAGLVAHETNRGATVH	low
HMDVLNPGDKAVTTASWLNFRTGPGMQNKVASVLARNTTVNIIEKSNEWYKVSLANGSTGYVHGMYLSKIT	medium

---

- ASSAY METHOD TEXT: soluble fraction after stress (log2 fold change); higher = more stays soluble; pooled small domains, quantitative proteomics
- CONDITION DETAILS: stress: 50 degC
OBSERVATION TYPE: soluble fraction (log2)

SEQUENCE CONTENT	OBSERVATION TYPE	MEASURED RESULT
HMNPEDDLLKAIIMKYFSNAQVQVDKNVIEYLLKRVDRDYQNLYNILEKINILSLQRKSKITTHLIRDIM	soluble fraction (log2)	-0.432
HMNQSYQLWIKDDELGPTPRSVGVLNEHFEVDPAALTNYDAELLRRATFGISLEPRGGSPTGQP	soluble fraction (log2)	-0.0224
HMNKIGTIVSINGPIVKTAGDVGFVMHEMVYVGKEKLVGEVIGLTTDFTIVEVYEETSGIKPGETIEGT	soluble fraction (log2)	-1.5
HMKVLFLESIEGSASMGEIKDVANGYARNFLFPNGFAVPATPKNLKNVEELQAKELEIQTERDNWAA	soluble fraction (log2)	-0.0454
HMKNVADEVFEKMLNMIIEGDWKKGEMIPSENELREAFSVSRSTVRQAVQRLSALGIVRSRQGKGTYVEQV	soluble fraction (log2)	-1.04
HMTGSAETRGITLTDEQVTVWAKDGSWANYVYRATDGNWYDGSGRLYYENGGGEWTQAATGEQGS	soluble fraction (log2)	-0.0258
HMIDTTKILPGQEFKNMQELSVALTGQKMPAGKGYVLQQEKFKLYFSWKKITGTHKLIIDEIYEEPKT	soluble fraction (log2)	-3.44
HMDYPFQYFNYSHLRILGVPAQLIKAVRKAPTLDAIEQLSGLSEKTKLWLLELATEPKLEDVLFDPGR	soluble fraction (log2)	-1.44
HMSAPTAFSERELELLAGMRRGASNKAMAEQLFISVNTVKYHRANLMRKLGARDRNEALEVAARLG	soluble fraction (log2)	-0.0071
HMREKPRETFQRIAEKVGQTLRKGPVRVQQMDLLFSESREQVMEVLRAMAESGEIRIQDDTLHWNGHT	soluble fraction (log2)	0.311
HMAEMLQDVLNMLSAKDREILVRYYYYYESVKQVAAEMQMSESAVKMRMSRARKKMQQELIDKG	soluble fraction (log2)	-3.59
HMNKQEFLNTLRIIFKKANVLDVESIIDVYEEHFAVGYEKGLNDEQIIKSLGTPKEIYTSYVEAGI	soluble fraction (log2)	-0.615
HMNPTTQIQYNLPKSEFVSIYIYDLIGNRVKSLINNYQDAGYKSVYWDAMNDLGQPVSAGMYIY	soluble fraction (log2)	-0.134
HMKYVDYYATLGVARDADLATITKAYRKLARQTHPDLNQGADNEARFKAAAEAYATLKHPEKRAAYDELGQ	soluble fraction (log2)	-0.00408
HMRYFDDEELNNKFLEFLSMRKKIRKPVRTDRALKALLKKLHELSGGDVGLMKQIIDQSLDKEWLGLFEL	soluble fraction (log2)	-0.422
HMTSSVIIPKLIGKTEEEAKVALAGLNVQVLYETHGDQANGIVIKQSFEEGTKVIKGVSIVITVNKVS	soluble fraction (log2)	0.0698
HMEVLEGFIEDIKFKSEESGYTVAKLNNRNKSIVIVGTMPFISEGQHVKLTGEWKIHQKFGAQFNVKELEE	soluble fraction (log2)	-0.347

Values compiled from the domain aggregation screens of Martell et al. (2025).
